experimental-protocol: growth suppression of yeast trafficking mutant, preliminary HTS, modulators of trafficking downstream of Golgi apparatus project, 1536-format plate, OD 615 nm (AID 637)
measurement-conditions: yeast transport mutant growth, absorbance 615 nm, 18 h; stronger effect = higher value
The source made the active and inactive calls. Cut-off read from the data, not from the text of the source: active = inhibition above about 30%; inactive = the rest.
attribute-measured: inhibition

chemical-structure: COc1ccccc1OCc1ccc(C(=O)N2CCN(C(=O)c3ccco3)CC2)cc1
test-result: -9.82% (inactive)
--
chemical-structure: CCOC(=O)c1sc(NC(=O)c2c(C)nn(Cc3ccccc3)c2C)cc1C
test-result: -4.92% (inactive)
--
chemical-structure: O=C(CSc1nnc(NC(=O)C2CCC2)s1)NC1CC1
test-result: 2% (inactive)

Count: 2. Required value per item: inhibition.
1. Cc1cc(C)n(-c2nc3sc4c(c3c3nnc(SCC(N)=O)n23)CC(C)(C)OC4)n1
2. CCCCCn1c(CN2CCN(c3cccc(Cl)c3)CC2)nc2c1c(=O)n(C)c(=O)n2C

## Result
1: -3.87% (inactive); 2: 11.6% (inactive)

====

Kindly state viability for each of the entries shown.
experimental-protocol: reversal of MRP1-mediated doxorubicin resistance, pilot screen, H69AR cells, doxorubicin co-treatment (AID 601)
measurement-conditions: H69AR cells, CellTiter-Glo, 72 h; compound alone cytotoxicity; at 10 µM
State the result as a value with its unit after it.

Count: 2. Required value per item: viability.
1. CSc1c(C#N)c(N)c(C#N)c2c1COC(C)(C)C2
2. O=C(NC1CCCCC1)C(c1ccco1)N(Cc1cccnc1)C(=O)C1COc2ccccc2O1 (stereo unspecified)

## Result
["88%", "81.1%"]

====

experimental-protocol: SK-BR-3 cell growth inhibitors, pilot screen, 24 h, human (AID 572);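 note: compound exposure lasted between 18 and 24 h rather than exactly 24 h; 100% = carrier-treated control wells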
measurement-conditions: SK-BR-3 viability, CellTiter-Glo luminescence, at 10 µM, stronger effect = lower value
attribute-measured: viability (%)
Give bare numbers, in %.

Count: 8. Required value per item: viability.
1. Cc1csc2ncc(C(=O)Nc3ccccc3Cl)c(=O)n12
2. N/C(=N/O)c1nc(N2CCCCC2)nc(N2CCCCC2)n1
3. CC1(C)Cc2noc(N)c2C(C)(C)N1OC(=O)c1cccs1
4. CC(C)C(=O)Nc1ccc(C(=O)NCc2cccnc2)cc1
5. CN1CCN(C(=O)c2ccc3c(=O)n(CCc4ccccc4)c(=S)[nH]c3c2)CC1
6. COc1ccc(C(=O)CSc2nnc(-c3ccc(C)cc3)o2)cc1
7. CN(C)CCOC(=O)C(c1ccccc1)C1(O)CCCC1 (configuration not stated)
8. COc1ccccc1-c1c(C)nn2c(N3CCC4(CC3)OCCO4)cc(C)nc12

## Result
[87.5, 115, 103, 107, 102, 97, 127, 90]

====

experimental-protocol: HUVEC growth inhibition – cell-based, human, primary screen (AID 575);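 note: 100% = median of untreated cell wells with 0.1% DMSO on each plate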
measurement-conditions: HUVEC proliferation, CellTiter-Glo luminescence, 72 h; at 10 µM; stronger effect = lower value
# note: exactly 90% is not below, so it is N; use Y for viability strictly under it

molecule: CCc1ccccc1NC(=O)CSC1=C(C#N)C(c2ccc(O)c(OC)c2)C2=C(CCCC2=O)N1 (stereo not drawn)
class: N

molecule: O=C1c2cccnc2C(=O)N1c1cccc(-c2nc3ccccc3o2)c1
class: N

molecule: N#CCOc1nc(N2CCOCC2)nc(N2CCOCC2)n1
class: N

molecule: O=C(Nc1ccc(S(=O)(=O)NCCc2ccccc2)cc1)c1ccc(Br)o1
class: Y

molecule: CCCc1cc(=O)[nH]c(Nc2ccc(OC)c(Cl)c2)n1
class: Y

## Task Does this molecule meet the criterion viability < 90%? O=C(CSc1nc2c(sc3ccccc32)c(=O)n1Cc1ccco1)NCC1CCCO1 (stereo not drawn)
## Result Y

Recorded values, source PubChem BioAssay.
